Measured Change of body wt. (vehicle) by item
Tested on: adjuvant-induced arthritis in male Lewis rats
Assay: Established adjuvant-induced arthritis test
Assay type: in vivo, rat
Settings: 30 mg/Kg po daily seven days, day 28 minus day 21; vehicle value in parentheses
Please give a number only; it is taken to be in g.

[
  {
    "COMPOUND": "CCCCCCCCC1CCCc2c1n(CCCCCCCC)c1ccc(Oc3ccc(C(=O)O)o3)cc21 (racemic)",
    "DISPLAY UNIT": "g",
    "READING": 10
  },
  {
    "COMPOUND": "CCCCCCCCn1c2c(c3cc(Cc4ccc(C(=O)O)o4)ccc31)CCCC2",
    "DISPLAY UNIT": "g",
    "READING": 4
  },
  {
    "COMPOUND": "CCCCCCCCn1c2c(c3cc(/C=C/c4ccc(C(=O)O)o4)ccc31)CCCC2(C)C",
    "DISPLAY UNIT": "g",
    "READING": 5
  }
]

Next compound, Change of body wt. (vehicle) to be filled in.
Inquiry: I am curious: what Change of body wt. (vehicle) value has been reported for CCCCCCCCn1c2c(c3cc(/C=C\c4ccc(C(=O)O)o4)ccc31)CCCC2(C)C ?
Reply text: 13
